Test system: SEM cells
PROTOCOL: cell viability relative to DMSO control; higher = less cytotoxic
CONDITIONS USED: RPMI 5 mM glucose + 10% dialyzed FBS; 48 h; 0.00234 µM
MEASURED ENDPOINT: cell viability (%)
Record the value in %, omitting the unit from your answer.

Simply: `CN1\N=C(N)/C2=C[N]([C@@H]3O[C@H](CO[P](O)(O)=O)[C@@H](O)[C@H]3O)C4=C2C1=NC=N4` , SEM cells, cell viability = 76

Simply: CCCCC(C=O)NC(=O)C(CC(C)C)NC(=O)OCc1ccccc1 (stereo not drawn) , SEM cells, cell viability = 82.8

Simply: COC(=O)C1C2CC3c4[nH]c5cc(OC)ccc5c4CCN3CC2CC(OC(=O)c2cc(OC)c(OC)c(OC)c2)C1OC (stereo not drawn) , SEM cells, cell viability = 110

Simply: `O=C(Nc1ncc(-c2cc(C(F)F)nn2-c2c(Cl)cccc2Cl)s1)C1CC1` , SEM cells, cell viability = 103

Simply: `CCO[C@@H]1OC(=O)C[C@@H]1NC(=O)[C@@H]1CCCN1C(=O)[C@@H](NC(=O)c1ccc(N)c(Cl)c1)C(C)(C)C` , SEM cells, cell viability = 126

Simply: `C[C@]12CC[C@H]3[C@@H](C\C=C/4C[C@@H](O)CC[C@]34C)[C@@H]1CCC2=O` , SEM cells, cell viability = 97.1

Simply: `C[S+](=O)([O-])c1ccc(C(=O)Nc2ccc(Cl)c(-c3ccccn3)c2)c(Cl)c1` , SEM cells, cell viability = 98.5

Simply: `N[S+](=O)([O-])c1cccc2c1C(=O)c1cccc(O)c1C2=O` , SEM cells, cell viability = 102
